Give IC50 for every item shown.
# assayed system: Beta-2 adrenergic receptor (Homo sapiens, UniProt P07550)
# Sequence (P07550 whole entry): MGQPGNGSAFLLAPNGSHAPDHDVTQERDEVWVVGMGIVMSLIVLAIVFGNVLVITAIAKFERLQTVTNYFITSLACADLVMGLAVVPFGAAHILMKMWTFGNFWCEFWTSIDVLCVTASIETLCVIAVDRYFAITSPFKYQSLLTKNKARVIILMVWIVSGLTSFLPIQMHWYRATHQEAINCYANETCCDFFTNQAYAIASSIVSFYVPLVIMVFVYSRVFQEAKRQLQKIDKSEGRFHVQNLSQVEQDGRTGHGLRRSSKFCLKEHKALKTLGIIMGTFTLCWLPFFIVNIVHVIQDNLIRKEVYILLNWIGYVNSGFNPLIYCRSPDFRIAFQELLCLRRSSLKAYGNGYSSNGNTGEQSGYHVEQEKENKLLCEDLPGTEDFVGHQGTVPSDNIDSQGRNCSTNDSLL
# method summary: Displacement of [125I]CYP from human beta-2 adrenergic receptor expressed in CHO cell membrane after 1 hr by scintillation counting method
Write the value in µM as a bare number.

Supply measured IC50 of CC1(C)CC2(CCN(C(=O)c3ccc(C[C@@H]4CC[C@H]([C@H](O)c5ccccc5)N4)cc3)CC2)C(=O)O1 in your reply.
11

Supply measured IC50 of O=C(c1ccc(C[C@@H]2CC[C@H]([C@H](O)c3ccccc3)N2)cc1)N1CCC2(CCOC2=O)CC1 in your reply.
5.6

Supply measured IC50 of CCOC(=O)C1CCN(C(=O)c2ccc(C[C@@H]3CC[C@H]([C@H](O)c4ccccc4)N3)cc2)CC1 in your reply.
10.9

Cited source for all entries: ChEMBL document CHEMBL3745665
